# Tested on: Serine/threonine-protein kinase B-raf (Homo sapiens), P15056 [V600E]
# Sequence (P15056 whole entry V600E): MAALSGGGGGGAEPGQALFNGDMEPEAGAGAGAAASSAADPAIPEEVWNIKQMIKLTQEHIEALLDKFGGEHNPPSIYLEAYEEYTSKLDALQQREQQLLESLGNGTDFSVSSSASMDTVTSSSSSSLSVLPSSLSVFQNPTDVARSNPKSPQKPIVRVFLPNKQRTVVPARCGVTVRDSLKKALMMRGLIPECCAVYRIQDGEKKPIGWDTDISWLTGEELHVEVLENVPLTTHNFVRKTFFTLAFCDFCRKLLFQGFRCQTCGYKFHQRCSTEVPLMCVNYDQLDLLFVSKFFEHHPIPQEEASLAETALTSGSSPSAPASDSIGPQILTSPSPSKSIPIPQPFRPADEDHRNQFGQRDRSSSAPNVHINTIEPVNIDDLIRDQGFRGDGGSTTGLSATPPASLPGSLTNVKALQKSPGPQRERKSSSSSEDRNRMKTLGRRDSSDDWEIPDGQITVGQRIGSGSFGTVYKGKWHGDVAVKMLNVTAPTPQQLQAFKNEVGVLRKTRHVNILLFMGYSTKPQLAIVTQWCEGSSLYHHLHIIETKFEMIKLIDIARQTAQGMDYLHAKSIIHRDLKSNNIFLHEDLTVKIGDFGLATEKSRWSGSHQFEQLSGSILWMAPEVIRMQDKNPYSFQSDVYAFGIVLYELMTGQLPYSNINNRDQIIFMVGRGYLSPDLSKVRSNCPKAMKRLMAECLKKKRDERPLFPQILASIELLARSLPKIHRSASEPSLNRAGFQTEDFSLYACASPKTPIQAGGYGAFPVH
# TEST_DESCRIPTION: Inhibition of BRAF V600E mutant (unknown origin) assessed as inhibition of MEK phosphorylation at 1 uM by ELISA relative to control
Calls of active or inactive are those of the source. No cut-off for these calls is given here.
READOUT_TYPE: inhibition

The following compounds have reported results that may help.
RECORD_SMILES: CCOC(=O)c1sc(NC(=O)c2ccccc2NS(C)(=O)=O)c(C#N)c1C
OBSERVED_RESULT: inactive

RECORD_SMILES: CCOC(=O)c1sc(NC(=O)c2ccncc2)c(C#N)c1C
OBSERVED_RESULT: 22%

RECORD_SMILES: CCOC(=O)c1sc(NC(=O)c2cc(OC)cc(OC)c2)c(C#N)c1C
OBSERVED_RESULT: 60%

RECORD_SMILES: CCCS(=O)(=O)Nc1cc(F)c(C(=O)Nc2sc(C(=O)OCC)c(C)c2C#N)c(F)c1
OBSERVED_RESULT: 34%

Field: next compound
Ask | Given the compound CCOC(=O)c1sc(NC(=O)c2ccc(NS(C)(=O)=O)cc2)c(C#N)c1C , what is its reported inhibition?
Reply | inactive

* * *

# Test system: Serine/threonine-protein kinase B-raf (Homo sapiens), P15056 [V600E]
# TEST_DESCRIPTION: Inhibition of BRAF V600E mutant (unknown origin) assessed as inhibition of MEK phosphorylation at 2 uM by ELISA relative to control
Calls of active or inactive are those of the source. The rule behind the calls is not given here.
READOUT_TYPE: inhibition

The following compounds have reported results that may help.
RECORD_SMILES: COC(=O)c1sc(NC(=O)c2cc(OC)cc(OC)c2)c(C#N)c1C
TARGET_ENTITY: Serine/threonine-protein kinase B-raf (Homo sapiens), P15056 [V600E]
inhibition: inactive
//
RECORD_SMILES: CCOC(=O)c1sc(NC(=O)c2ccc(Br)cc2)c(C#N)c1C
TARGET_ENTITY: Serine/threonine-protein kinase B-raf (Homo sapiens), P15056 [V600E]
inhibition: inactive
//
RECORD_SMILES: CCOC(=O)c1sc(NC(=O)c2ccccc2OC)c(C#N)c1C
TARGET_ENTITY: Serine/threonine-protein kinase B-raf (Homo sapiens), P15056 [V600E]
inhibition: 42%
//
RECORD_SMILES: Cc1c(C(=O)OC(C)C)sc(NC(=O)c2ccc(Cl)c(Cl)c2)c1C#N
TARGET_ENTITY: Serine/threonine-protein kinase B-raf (Homo sapiens), P15056 [V600E]
inhibition: 42%
//
RECORD_SMILES: CCCOC(=O)c1c(NC(=O)c2ccccc2F)sc(C(=O)OCC)c1C
TARGET_ENTITY: Serine/threonine-protein kinase B-raf (Homo sapiens), P15056 [V600E]
inhibition: inactive
//
RECORD_SMILES: CCOC(=O)c1sc(NC(=O)c2ccc(OC)c(OC)c2)c(C#N)c1C
TARGET_ENTITY: Serine/threonine-protein kinase B-raf (Homo sapiens), P15056 [V600E]
inhibition: 32%
//
RECORD_SMILES: CCOC(=O)c1sc(NC(=O)c2cccc(C#N)c2)c(C#N)c1C
TARGET_ENTITY: Serine/threonine-protein kinase B-raf (Homo sapiens), P15056 [V600E]
inhibition: 40%
//
RECORD_SMILES: CCOC(=O)c1sc(NC(=O)c2ccc(Cl)cc2)c(C(N)=O)c1C
TARGET_ENTITY: Serine/threonine-protein kinase B-raf (Homo sapiens), P15056 [V600E]
inhibition: 26%
//
RECORD_SMILES: CCOC(=O)c1sc(NC(=O)c2ccccc2F)c(C(N)=O)c1C
TARGET_ENTITY: Serine/threonine-protein kinase B-raf (Homo sapiens), P15056 [V600E]
inhibition: inactive
//
RECORD_SMILES: CCOC(=O)c1sc(NC(=O)c2ccc(N3CCN(C)CC3)cc2)c(C#N)c1C
TARGET_ENTITY: Serine/threonine-protein kinase B-raf (Homo sapiens), P15056 [V600E]
inhibition: inactive

Field: next compound
Ask | Given the compound CCOC(=O)c1sc(NC(=O)c2ccc(Cl)cc2)c(C#N)c1C , what is its reported inhibition?
Reply | 60%

* * *

# Tested on: Serine/threonine-protein kinase B-raf (Homo sapiens), P15056 [V600E]
# TEST_DESCRIPTION: Inhibition of BRAF V600E mutant (unknown origin) assessed as inhibition of MEK phosphorylation at 1 uM by ELISA relative to control
Calls of active or inactive are those of the source. The calls are words filed in the database; no cut-off is given here.
READOUT_TYPE: inhibition

RECORD_SMILES: CCOC(=O)c1sc(NC(=O)c2cccnc2)c(C#N)c1C
OBSERVED_RESULT: 20%

RECORD_SMILES: CCOC(=O)c1sc(NC(=O)c2ccccn2)c(C#N)c1C
OBSERVED_RESULT: 39%

RECORD_SMILES: CCOC(=O)c1sc(NC(=O)c2ccc(F)cc2)c(C(=O)Nc2ccccc2)c1C
OBSERVED_RESULT: 66%

RECORD_SMILES: CCOC(=O)c1sc(NC(=O)c2ccc(Cl)nc2)c(C#N)c1C
OBSERVED_RESULT: 10%

RECORD_SMILES: CCOC(=O)c1sc(NC(=O)c2cccc(NC(C)=O)c2)c(C#N)c1C
OBSERVED_RESULT: 17%

Ask | Given the compound CCOC(=O)c1sc(NC(=O)c2cccc(NS(C)(=O)=O)c2)c(C#N)c1C , what is its reported inhibition?
Reply | inactive

Ask | Given the compound CCOC(=O)c1sc(NC(=O)c2ccc(NC(C)=O)cc2)c(C#N)c1C , what is its reported inhibition?
Reply | inactive

* * *

Here, each record is paired with measured IC50 data.
# TARGET_ENTITY: Serine/threonine-protein kinase B-raf (Homo sapiens, UniProt P15056, V600E)
# Sequence (P15056 2-766 V600E limits assumed): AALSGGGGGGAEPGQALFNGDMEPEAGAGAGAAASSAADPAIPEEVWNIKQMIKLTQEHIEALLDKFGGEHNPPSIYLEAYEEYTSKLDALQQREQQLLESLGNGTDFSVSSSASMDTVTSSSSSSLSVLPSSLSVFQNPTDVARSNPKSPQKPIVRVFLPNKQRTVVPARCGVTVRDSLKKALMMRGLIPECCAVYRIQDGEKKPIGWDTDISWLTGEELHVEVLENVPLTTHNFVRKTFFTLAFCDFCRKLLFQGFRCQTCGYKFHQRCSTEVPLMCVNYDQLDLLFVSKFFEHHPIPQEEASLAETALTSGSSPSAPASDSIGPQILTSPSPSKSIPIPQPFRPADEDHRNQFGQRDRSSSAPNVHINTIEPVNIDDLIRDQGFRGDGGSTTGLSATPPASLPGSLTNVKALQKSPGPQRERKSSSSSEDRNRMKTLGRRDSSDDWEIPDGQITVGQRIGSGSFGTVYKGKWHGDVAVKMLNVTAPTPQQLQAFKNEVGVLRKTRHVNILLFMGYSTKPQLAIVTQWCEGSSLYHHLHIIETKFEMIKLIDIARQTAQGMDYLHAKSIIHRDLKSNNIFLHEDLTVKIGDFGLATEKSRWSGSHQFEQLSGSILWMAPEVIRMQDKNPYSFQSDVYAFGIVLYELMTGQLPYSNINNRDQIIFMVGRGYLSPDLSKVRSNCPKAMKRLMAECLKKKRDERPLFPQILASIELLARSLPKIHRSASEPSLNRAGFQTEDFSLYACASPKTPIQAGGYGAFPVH
# TEST_DESCRIPTION: Inhibition of BRAF V600E mutant (unknown origin) assessed as inhibition of MEK phosphorylation by ELISA
Value and unit, in that order.

The following molecules have reported results that may help.
RECORD_SMILES: CCOC(=O)c1sc(NC(=O)c2cc(OC)cc(OC)c2)c(C#N)c1C
TARGET_ENTITY: Serine/threonine-protein kinase B-raf (Homo sapiens, UniProt P15056, V600E)
READOUT_TYPE: IC50
OBSERVED_RESULT: 770 nM

RECORD_SMILES: CCOC(=O)c1sc(NC(=O)c2ccc(F)cc2)c(C(=O)Nc2ccccc2)c1C
TARGET_ENTITY: Serine/threonine-protein kinase B-raf (Homo sapiens, UniProt P15056, V600E)
READOUT_TYPE: IC50
OBSERVED_RESULT: 630 nM

RECORD_SMILES: O=C1NC(=S)NC(=O)C1=Cc1ccc(-c2ccc(Br)cc2)o1
TARGET_ENTITY: Serine/threonine-protein kinase B-raf (Homo sapiens, UniProt P15056, V600E)
READOUT_TYPE: IC50
OBSERVED_RESULT: 470 nM

RECORD_SMILES: CCOC(=O)c1sc(NC(=O)c2ccccc2C)c(C#N)c1C
TARGET_ENTITY: Serine/threonine-protein kinase B-raf (Homo sapiens, UniProt P15056, V600E)
READOUT_TYPE: IC50
OBSERVED_RESULT: 2010 nM

RECORD_SMILES: CCOC(=O)c1sc(NC(=O)c2ccc(Cl)c([N+](=O)[O-])c2)c(C#N)c1C
TARGET_ENTITY: Serine/threonine-protein kinase B-raf (Homo sapiens, UniProt P15056, V600E)
READOUT_TYPE: IC50
OBSERVED_RESULT: 2160 nM

Field: next molecule
Ask | Given the molecule CCOC(=O)c1sc(NC(=O)c2ccc(OCC)cc2)c(C#N)c1C , what is its reported IC50?
Reply | 1160 nM

* * *

# Test system: Serine/threonine-protein kinase B-raf (Homo sapiens), P15056 [V600E]
# TEST_DESCRIPTION: Inhibition of BRAF V600E mutant (unknown origin) assessed as inhibition of MEK phosphorylation at 2 uM by ELISA relative to control
Active and inactive are the calls of the source. The rule behind the calls is not given here.
READOUT_TYPE: inhibition

The following compounds have reported results that may help.
RECORD_SMILES: CCOC(=O)c1sc(NC(=O)c2ccc(Cl)c(Cl)c2)c(C#N)c1C
inhibition: 36%
//
RECORD_SMILES: CCOc1ccc(C(=O)Nc2sc(C(=O)OC(C)C)c(C)c2C#N)cc1
inhibition: inactive
//
RECORD_SMILES: CCOC(=O)c1sc(NC(=O)c2ccc(Cl)c(F)c2)c(C#N)c1C
inhibition: 59%
//
RECORD_SMILES: CCOC(=O)c1sc(NC(=O)c2ccc(OCC)cc2)c(C#N)c1C
inhibition: 69%
//
RECORD_SMILES: CCOC(=O)c1sc(NC(=O)c2ccccc2Cl)c(C#N)c1C
inhibition: inactive

Ask | Return inhibition measured with Serine/threonine-protein kinase B-raf (Homo sapiens), P15056 [V600E] given this compound: CCOC(=O)c1sc(NC(=O)c2cccc(Cl)c2)c(C#N)c1C
Reply | 57%

Ask | Return inhibition measured with Serine/threonine-protein kinase B-raf (Homo sapiens), P15056 [V600E] given this compound: CCOC(=O)c1sc(NC(=O)c2ccc(OC)cc2)c(C#N)c1C
Reply | 15%

Data credit: ChEMBL document CHEMBL2390888
